measured.on: T1, Human B7-H4 ECD-Flag-His10 (monomeric) (human, UniProt Q7Z7D3 25-259)
T1 construct: Minimally biotinylated for KinExA; also called hB7H4-ECD-Flag-His10; B7-H4-FLAG
T1 sequence: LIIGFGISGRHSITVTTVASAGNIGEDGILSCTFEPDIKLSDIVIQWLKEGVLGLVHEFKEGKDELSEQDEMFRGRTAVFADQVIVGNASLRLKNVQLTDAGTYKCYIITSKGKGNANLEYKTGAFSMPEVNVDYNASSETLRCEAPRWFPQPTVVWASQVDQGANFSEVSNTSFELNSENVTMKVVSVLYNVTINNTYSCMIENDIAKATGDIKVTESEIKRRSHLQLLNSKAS
assay.summary: Octet BLI, hIgG1-TM on Protein G (n = 4-7)

binder	output.unit	Kd
ZY0EO5-E07 human IgG1-TM (antibody, V domains shown, also called ZY0E05-E07; E05-E07) VH: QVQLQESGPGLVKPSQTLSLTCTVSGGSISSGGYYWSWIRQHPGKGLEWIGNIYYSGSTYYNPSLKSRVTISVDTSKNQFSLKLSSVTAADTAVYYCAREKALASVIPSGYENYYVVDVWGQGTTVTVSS VL: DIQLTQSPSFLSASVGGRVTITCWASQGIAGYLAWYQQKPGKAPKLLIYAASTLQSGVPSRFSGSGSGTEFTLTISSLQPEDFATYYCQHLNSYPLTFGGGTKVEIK	nM	19.8
